- Assay Details: Approximate solubility in organic solvents at room temperature
- Assay type: physicochemical
- Test Settings: Ethanol
Measurement Name: solubility

Query :: Which measured solubility value corresponds to C[C@@H](Nc1ccn2ncc(C3=NOC(C)(C)N3)c2n1)c1cc(F)cc(F)c1F [crystal form A] ?
Result :: > 38 mg/mL

----------
- Assay Details: Approximate solubility in organic solvents at room temperature
- Assay type: physicochemical
- Test Settings: Isopropyl acetate
Measurement Name: solubility

Query :: Can you look up the measured solubility of C[C@@H](Nc1ccn2ncc(C3=NOC(C)(C)N3)c2n1)c1cc(F)cc(F)c1F [crystal form A] for me?
Result :: > 38 mg/mL

----------
- Assay Details: Pharmacokinetic test in SD rats
- Type: in vivo
- Test Settings: rat, plasma, po, 10 mg/kg, rat No. 2; intragastric gavage at 10 mg/kg
Measurement Name: AUC(0-t) (ng·h/mL)
The reply should be a number in ng·h/mL, with the unit left off.

Query :: Item C[C@@H](Nc1ccn2ncc(C3=NOC(C)(C)N3)c2n1)c1cc(F)cc(F)c1F [amorphous form] has what recorded AUC(0-t)?
Result :: 1910

----------
- Assay Details: Pharmacokinetic test in SD rats
- Assay type: in vivo
- Test Settings: rat, plasma, po, 10 mg/kg, Mean of rats No. 1-3; intragastric gavage at 10 mg/kg
Measurement Name: Tmax
Give the value; after it, write the unit.

Query :: Form field: reported Tmax of C[C@@H](Nc1ccn2ncc(C3=NOC(C)(C)N3)c2n1)c1cc(F)cc(F)c1F [amorphous form]
Result :: 6 h

----------
- Assay Details: Pharmacokinetic test in SD rats
- Type: in vivo
- Test Settings: rat, in vivo, po, 10 mg/kg, rats, intragastric gavage 10 mg/kg; No. 3
Measurement Name: AUC(0-t) (ng·h/mL)
Entry rule: numbers only, all in ng·h/mL.

Query :: // lookup AUC(0-t) for C[C@@H](Nc1ccn2ncc(C3=NOC(C)(C)N3)c2n1)c1cc(F)cc(F)c1F [crystal form A]
Result :: 6330

----------
- Assay Details: Pharmacokinetic test in SD rats
- Format: in vivo
- Test Settings: rat, plasma, po, 10 mg/kg, rat No. 1; intragastric gavage at 10 mg/kg
Measurement Name: AUC(0-inf)
Give the value; after it, write the unit.

Query :: Given the entry C[C@@H](Nc1ccn2ncc(C3=NOC(C)(C)N3)c2n1)c1cc(F)cc(F)c1F [amorphous form] , report its measured AUC(0-inf).
Result :: 982 ng·h/mL

----------
- Assay Details: Pharmacokinetic test in SD rats
- Format: in vivo
- Test Settings: rat, in vivo, po, 10 mg/kg, rats, intragastric gavage 10 mg/kg; Mean
Measurement Name: Cmax (ng/mL)
# unit: ng/mL | format: bare number

Query :: Please report the recorded Cmax for C[C@@H](Nc1ccn2ncc(C3=NOC(C)(C)N3)c2n1)c1cc(F)cc(F)c1F [crystal form A] .
Result :: 578

----------
- Assay Details: Pharmacokinetic test in SD rats
- Type: in vivo
- Test Settings: rat, plasma, po, 10 mg/kg, rat No. 1; intragastric gavage at 10 mg/kg
- Experimental: Experimental animals: healthy adult SD rats, male, 6 in total, divided into two groups, with 3 rats per group, aged 6-8 weeks; and body weight approximately 200-300 g. […] PK parameter processing: pharmacokinetic (PK) parameters were calculated according to a plasma concentration from individual plasma concentration and corresponding sampling time data using Phoenix WinNonlin software with a non-compartmental model. […]
Measurement Name: Cmax

Query :: Bench note: what Cmax did C[C@@H](Nc1ccn2ncc(C3=NOC(C)(C)N3)c2n1)c1cc(F)cc(F)c1F [amorphous form] show?
Result :: 87.1 ng/mL

----------
- Assay Details: Pharmacokinetic test in SD rats
- Type: in vivo
- Test Settings: rat, plasma, po, 10 mg/kg, rat No. 2; intragastric gavage at 10 mg/kg
Measurement Name: AUC(0-inf) (ng·h/mL)
Answer with a number only, understood to be in ng·h/mL.

Query :: # AUC(0-inf) lookup, item C[C@@H](Nc1ccn2ncc(C3=NOC(C)(C)N3)c2n1)c1cc(F)cc(F)c1F [amorphous form]
Result :: 3200

----------
- Assay Details: Pharmacokinetic test in SD rats
- Assay type: in vivo
- Test Settings: rat, plasma, po, 10 mg/kg, rats, intragastric gavage 10 mg/kg; Mean
Measurement Name: Cmax (ng/mL)
Response body: numeric value in ng/mL, unit text excluded.

Query :: State the recorded Cmax for this entry: C[C@@H](Nc1ccn2ncc(C3=NOC(C)(C)N3)c2n1)c1cc(F)cc(F)c1F [amorphous form]
Result :: 151

----------
- Assay Details: Pharmacokinetic test in SD rats
- Type: in vivo
- Test Settings: rat, plasma, po, 10 mg/kg, rat No. 3; intragastric gavage at 10 mg/kg
Measurement Name: Cmax (ng/mL)
Respond numerically; units are ng/mL and should not be typed.

Query :: Look up Cmax for this molecule: C[C@@H](Nc1ccn2ncc(C3=NOC(C)(C)N3)c2n1)c1cc(F)cc(F)c1F [amorphous form]
Result :: 58.3

----------
- Assay Details: Pharmacokinetic test in SD rats
- Format: in vivo
- Test Settings: rat, plasma, po, 10 mg/kg, rat No. 1; intragastric gavage at 10 mg/kg
Measurement Name: MRT last (h)
The reply should be a number in h, with the unit left off.

Query :: # MRT last lookup, item C[C@@H](Nc1ccn2ncc(C3=NOC(C)(C)N3)c2n1)c1cc(F)cc(F)c1F [amorphous form]
Result :: 7.84

----------
- Assay Details: Pharmacokinetic test in SD rats
- Type: in vivo
- Test Settings: rat, in vivo, po, 10 mg/kg, rats, intragastric gavage 10 mg/kg; No. 1
- Experimental: Experimental animals: healthy adult SD rats, male, 6 in total, divided into two groups, with 3 rats per group, aged 6-8 weeks; and body weight approximately 200-300 g. […] PK parameter processing: pharmacokinetic (PK) parameters were calculated according to a plasma concentration from individual plasma concentration and corresponding sampling time data using Phoenix WinNonlin software with a non-compartmental model. […]
Measurement Name: AUC(0-t) (ng·h/mL)
All answers are understood in ng·h/mL, so give the number only.

Query :: For the compound shown here, C[C@@H](Nc1ccn2ncc(C3=NOC(C)(C)N3)c2n1)c1cc(F)cc(F)c1F [crystal form A] , give the reported AUC(0-t).
Result :: 4320

----------
- Assay Details: Pharmacokinetic test in SD rats
- Assay type: in vivo
- Test Settings: rat, in vivo, po, 10 mg/kg, rats, intragastric gavage 10 mg/kg; No. 2
Measurement Name: MRT last (h)
Response body: numeric value in h, unit text excluded.

Query :: Endpoint output: MRT last of C[C@@H](Nc1ccn2ncc(C3=NOC(C)(C)N3)c2n1)c1cc(F)cc(F)c1F [crystal form A] . Value?
Result :: 5.52

----------
- Assay Details: Pharmacokinetic test in SD rats
- Format: in vivo
- Test Settings: rat, plasma, po, 10 mg/kg, Mean of rats No. 1-3; intragastric gavage at 10 mg/kg
Measurement Name: Cmax (ng/mL)
Field format: number, assumed ng/mL, no unit text.

Query :: // query Cmax value for entry C[C@@H](Nc1ccn2ncc(C3=NOC(C)(C)N3)c2n1)c1cc(F)cc(F)c1F [amorphous form]
Result :: 151

----------
- Assay Details: Pharmacokinetic test in SD rats
- Type: in vivo
- Test Settings: rat, plasma, po, 10 mg/kg, Mean of rats No. 1-3; intragastric gavage at 10 mg/kg
Measurement Name: MRT last

Query :: What MRT last value was documented for this compound, C[C@@H](Nc1ccn2ncc(C3=NOC(C)(C)N3)c2n1)c1cc(F)cc(F)c1F [amorphous form] ?
Result :: 7.55 h

----------
- Assay Details: Pharmacokinetic test in SD rats
- Type: in vivo
- Test Settings: rat, in vivo, po, 10 mg/kg, rats, intragastric gavage 10 mg/kg; No. 3
Measurement Name: AUC(0-inf)
Express the reported value numerically, then name its unit.

Query :: What value of AUC(0-inf) has been recorded for this entry: C[C@@H](Nc1ccn2ncc(C3=NOC(C)(C)N3)c2n1)c1cc(F)cc(F)c1F [crystal form A]
Result :: 6440 ng·h/mL

----------
- Assay Details: Pharmacokinetic test in SD rats
- Format: in vivo
- Test Settings: rat, in vivo, po, 10 mg/kg, rats, intragastric gavage 10 mg/kg; No. 1
Measurement Name: Cmax
Hi, when you answer, please include the unit after the number. Thanks!

Query :: Can you share its Cmax? I mean this molecule: C[C@@H](Nc1ccn2ncc(C3=NOC(C)(C)N3)c2n1)c1cc(F)cc(F)c1F [crystal form A]
Result :: 652 ng/mL

----------
- Assay Details: Pharmacokinetic test in SD rats
- Format: in vivo
- Test Settings: rat, in vivo, po, 10 mg/kg, rats, intragastric gavage 10 mg/kg; No. 1
- Method: Experimental animals: healthy adult SD rats, male, 6 in total, divided into two groups, with 3 rats per group, aged 6-8 weeks; and body weight approximately 200-300 g. […] PK parameter processing: pharmacokinetic (PK) parameters were calculated according to a plasma concentration from individual plasma concentration and corresponding sampling time data using Phoenix WinNonlin software with a non-compartmental model. […]
Measurement Name: AUC(0-inf) (ng·h/mL)
# number only, unit ng·h/mL dropped from output

Query :: Would you mind telling me what AUC(0-inf) value was observed for C[C@@H](Nc1ccn2ncc(C3=NOC(C)(C)N3)c2n1)c1cc(F)cc(F)c1F [crystal form A] ?
Result :: 4390

// data source = patent EP4813989A1
